Cited source: the supplement of paper PMC8007513

system: Trichoderma virens ATCC 9645; experiment: growth yield (OD600) relative to untreated control; higher = less growth inhibition; conditions: compound concentration: 100 uM; 40 h
Where a name gives a salt, the structure may show the parent alone. Screen size: about 1,300 compounds; about 75 (6%) showed an effect of 50% or more. The full list was thinned out, with strong results kept by preference.
Values of growth yield greater than or equal to 80% map to Satisfied; values below map to Not satisfied.

Example cases with answers are listed next.
1) OC(CCN1CCCCC1)(c1ccccc1)C1CC2C=CC1C2 (stereo not given) [Biperiden hydrochloride]    Satisfied
2) CC1=C(C(=O)O)N2C(=O)[C@@H](NC(=O)[C@H](N)c3ccc(O)cc3)[C@H]2SC1 [Cefadroxil]    Satisfied
3) CCC(C)(C)c1ccc(CC(C)CN2C[C@@H](C)O[C@@H](C)C2)cc1 (stereo not given in full) [Amorolfine hydrochloride]    Not satisfied
4) CC(C)(C)CC(C)(C)c1ccc(OCCOCC[N+](C)(C)Cc2ccccc2)cc1 [Benzethonium chloride]    Not satisfied
5) NC[C@@H]1O[C@H](O[C@H]2[C@@H](O)[C@H](O[C@@H]3[C@@H](O)[C@H](N)C[C@H](N)[C@H]3O[C@H]3O[C@H](CO)[C@@H](O)[C@H](O)[C@H]3N)O[C@@H]2CO)[C@H](N)[C@@H](O)[C@@H]1O [Paromomycin sulfate]    Satisfied
6) CN(C)CCOC(c1ccc(Cl)cc1)c1ccccn1 (stereo not given) [Carbinoxamine maleate salt]    Satisfied

Please tell me: is the compound CC(N/C(=N\C#N)Nc1ccncc1)C(C)(C)C (stereo not given) [Pinacidil] at or over 80% in terms of growth yield?
Satisfied

Quick one: Cc1cc(C(C)(C)CC(C)(C)C)ccc1OCCOCC[N+](C)(C)Cc1ccccc1 [Methyl benzethonium chloride]
Not satisfied

What do you get for C=C1C[C@H]2[C@@H]3C=C(C)C4=CC(=O)CC[C@]4(C)[C@H]3CC[C@]2(C)[C@@]1(OC(C)=O)C(C)=O [Melengestrol acetate] ?
Satisfied

Same for C=CCN1CCCC1CNC(=O)c1cc2nn[nH]c2cc1OC (stereo not given) [Alizapride hydrochloride]
Satisfied

And the next one, OC(CNCC(O)C1CCc2cc(F)ccc2O1)C1CCc2cc(F)ccc2O1 (stereo not given) [Nebivolol hydrochloride] ?
Satisfied

Also, C#C[C@]1(O)CC[C@H]2[C@@H]3CCC4=Cc5oncc5C[C@]4(C)[C@H]3CC[C@@]21C [Danazol] please.
Satisfied

Entry to check: Clc1ccc(CCC(Cn2ccnc2)Sc2c(Cl)cccc2Cl)cc1 (stereo not given) [Butoconazole nitrate]
Not satisfied

What do we get for CCCCc1ncc(/C=C(\Cc2cccs2)C(=O)O)n1Cc1ccc(C(=O)O)cc1 [Eprosartan mesylate] ?
Satisfied

What do we get for COc1ccnc(C[S+]([O-])c2nc3cc(OC(F)F)ccc3[nH]2)c1OC (stereo not given) [Pantoprazole sodium] ?
Satisfied
